Tested on: HEK293 cells overexpressing APOL1 G2
Assay: APOL1 G2 HEK293 cell rescue assay (reversal of cell death caused by overexpression of APOL1)
Format: cell-based
Details: Homo sapiens, HEK293, HEK293 overexpressing APOL1 G2; geometric mean of at least 2 assay runs; † = single assay run
pEC50: −log10 of the molar value.
Label 1.0 for high-side pEC50 (at or above 7) and 0.0 for low-side pEC50 (below it).

Example results:
C[C@]1(O)C[C@@H](n2cc3cc(OCCN4CCC5(CC4)C(=O)Nc4ccc(C#N)cc45)cc(C(F)(F)F)c3n2)C1 ... 1.0
CS(=O)(=O)c1ccc(OCCN2CCC3(CC2)C(=O)Nc2ccc(C#N)cc23)cc1F ... 0.0
CN1c2ccc(OCCN3CCC4(CC3)C(=O)Nc3ccc(Cl)cc34)cc2CCS1(=O)=O ... 1.0
C[C@]1(O)C[C@@H](n2cnc3cc(OCCN4CCC5(CC4)C(=O)Nc4ccc(Cl)cc45)cc(C(F)(F)F)c32)C1 ... 1.0

Query: Dear colleague, could you confirm whether CC(C)N1C(=O)CCc2cc(OCCN3CCC4(CC3)C(=O)Nc3ccc(C#N)cc34)ccc21 has pEC50 at or above 7?
Result: 1.0

Query: Dear colleague, could you confirm whether CS(=O)(=O)c1ccc(OCCN2CCC3(CC2)C(=O)Nc2c(Cl)cc(Cl)cc23)cc1 has pEC50 at or above 7?
Result: 0.0

Query: Dear colleague, could you confirm whether C[C@]1(O)C[C@@H](n2c(=O)oc3cc(OCCN4CCC5(CC4)C(=O)Nc4ccc(Cl)cc45)cnc32)C1 has pEC50 at or above 7?
Result: 1.0

Query: Dear colleague, could you confirm whether CS(=O)(=O)c1ccc(OCCN2CCC3(CC2)C(=O)Nc2ccc(Cl)cc23)cc1C#N has pEC50 at or above 7?
Result: 1.0

Query: Dear colleague, could you confirm whether O=C(c1c(F)cc(OCCN2CCC3(CC2)C(=O)Nc2ccc(Cl)cc23)cc1F)N1CCS(=O)(=O)CC1 has pEC50 at or above 7?
Result: 1.0

Query: Dear colleague, could you confirm whether CC1(C)OCC(c2ncc(OCCN3CCC4(CC3)C(=O)Nc3ccc(Cl)cc34)cn2)O1 (stereo not drawn) has pEC50 at or above 7?
Result: 1.0

Query: Dear colleague, could you confirm whether CS(=O)(=O)C1(c2ncc(OCCN3CCC4(CC3)C(=O)Nc3ccc(C(F)F)cc34)cn2)CC1 has pEC50 at or above 7?
Result: 0.0
